Catalogue of molecules with associated IC50
- experimental-system: CDK9/CycT1 (Homo sapiens, UniProt P50750)
- Construct: Recombinant full-length His-tagged human CDK9 and CycT1; His; purchased Invitrogen PV4131; host or cells: insect cells
- Sequence (P50750 whole entry): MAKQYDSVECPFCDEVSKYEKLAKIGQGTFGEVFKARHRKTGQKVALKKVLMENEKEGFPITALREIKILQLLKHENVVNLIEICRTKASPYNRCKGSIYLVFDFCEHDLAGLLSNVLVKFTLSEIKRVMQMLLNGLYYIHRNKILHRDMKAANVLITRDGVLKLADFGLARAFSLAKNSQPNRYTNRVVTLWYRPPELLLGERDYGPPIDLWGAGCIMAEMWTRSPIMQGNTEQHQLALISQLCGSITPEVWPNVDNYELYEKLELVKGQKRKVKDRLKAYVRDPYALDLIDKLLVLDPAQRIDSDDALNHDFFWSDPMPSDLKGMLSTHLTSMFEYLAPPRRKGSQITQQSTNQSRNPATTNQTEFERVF
- Sequence (O60563 whole entry partner): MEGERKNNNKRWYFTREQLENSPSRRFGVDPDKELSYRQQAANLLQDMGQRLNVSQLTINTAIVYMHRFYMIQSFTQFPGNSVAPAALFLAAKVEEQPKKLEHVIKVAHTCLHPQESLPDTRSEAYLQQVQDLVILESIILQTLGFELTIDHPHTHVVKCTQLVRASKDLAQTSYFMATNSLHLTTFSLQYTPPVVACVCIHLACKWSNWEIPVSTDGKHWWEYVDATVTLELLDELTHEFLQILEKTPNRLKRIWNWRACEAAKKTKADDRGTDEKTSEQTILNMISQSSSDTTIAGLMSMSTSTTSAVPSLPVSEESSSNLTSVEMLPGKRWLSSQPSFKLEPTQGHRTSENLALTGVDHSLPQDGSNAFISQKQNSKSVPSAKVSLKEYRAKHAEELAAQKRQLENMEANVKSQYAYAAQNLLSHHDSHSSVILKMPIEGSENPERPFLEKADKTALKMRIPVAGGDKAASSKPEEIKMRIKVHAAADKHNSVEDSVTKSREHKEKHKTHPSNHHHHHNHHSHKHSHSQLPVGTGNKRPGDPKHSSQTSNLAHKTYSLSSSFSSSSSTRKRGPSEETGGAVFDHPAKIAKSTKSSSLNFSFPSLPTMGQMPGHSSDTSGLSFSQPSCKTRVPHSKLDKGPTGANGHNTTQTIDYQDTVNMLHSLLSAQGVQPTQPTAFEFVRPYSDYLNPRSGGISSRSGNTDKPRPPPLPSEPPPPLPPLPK
- assay: CDK9/CycT1 high ATP kinase assay (Method 1b, TR-FRET, 2 mM ATP)
- Format: biochemical
- condition-context: Method 1b, 2 mM ATP
I only need the number, in nM, no unit after it.

> print(dat)
                               given.smiles  observable  numeric.value
1  Cc1cc(CS(C)(=O)=O)cc(Nc2cc(-c3ccc(F)c4ccoc34)c(F)cn2)n1        IC50            0.9
2  CS(=O)(=O)Cc1cc(F)nc(Nc2cc(-c3ccc(F)c4ccoc34)c(F)cn2)c1        IC50              1
3  CS(=O)(=O)Cc1cc(Nc2cc(-c3ccc(F)c4ccoc34)c(F)cn2)nc(C(F)(F)F)c1        IC50              4
4  CS(=O)(=O)Cc1ccnc(Nc2cc(-c3ccc(F)c4ccoc34)c(F)cn2)c1        IC50              2

Then there is this molecule:
Quick note, IC50 for CS(=O)(=O)Cc1ccnc(Nc2cc(-c3cccc4ccoc34)c(F)cn2)c1 landed at 2
